# testSummary: NCI Yeast Anticancer Drug Screen. Data for the mec2-1 strain (AID 157)
# experimentalParameters: S. cerevisiae mec2-1 strain, at 50.0 µM, stronger effect = higher value
The panel holds about 79,000 compounds, 15% with a hit somewhere; the sample as a whole holds those more often.
In this section, each of the compounds is paired with its reported growth inhibition.
Give the quantity in %, number only.

Here's what some known entries look like.
compound=Cn1c2ccccc2c2c(C#N)c(C#N)c([N+](=O)[O-])cc21 outputunit=% experimentalvalue=78.5
compound=O=C1Nc2ccccc2/C1=N\N=c1/scc(-c2ccccc2)n1-c1ccccc1 outputunit=% experimentalvalue=74.5
compound=N#Cc1cc2cccn2c2c1cnn2-c1ccccc1 outputunit=% experimentalvalue=-6.8

Return growth inhibition (reported value) for this compound: COC1/C=C/OC2(C)Oc3c(C)c(O)c4c(c3C2=O)C(=O)C=C(NC(=O)/C(C)=C\C=C\C(C)C(OC=O)C(C)C(O)C(C)C(OC(C)=O)C1C)C4=O (stereo unspecified) 53.5

Output growth inhibition of O=C(O)c1cc2cc3ccccc3cc2cc1O 57.2

Note down growth inhibition recorded for O=C(Nc1ccccc1)c1cc(Cl)ccc1O 76

---

# testSummary: NCI Yeast Anticancer Drug Screen. Data for the mec2-1 strain (AID 157)
# experimentalParameters: S. cerevisiae mec2-1 strain, at 50.0 µM
The panel holds about 79,000 compounds, 15% with a hit somewhere; the sample as a whole holds those more often. Active and inactive are the calls of the source. Cut-off read from the data, not from the text of the source: active = growth inhibition above about 70%; inactive = the rest.
Outcomes you can answer with include only these: 1.0 for active, 0.0 for inactive

Here's what some known entries look like.
compound=Cc1nc(N)sc1N=Nc1cccc(Cl)c1Cl classassignment=0.0
compound=O=C(O)[C@@H]1CCCC[C@@H]1C(=O)N(C1CCCCC1)C1CCCCC1 classassignment=0.0
compound=COC1=CC(=O)c2c(O)c3c(c(O)c2C1=O)C[C@](C)(O)C[C@@H]3O classassignment=1.0
compound="CCOC(=O)C(C(=O)OCC)C1(c2ccccc2)OC(=O)c2ccccc21 (configuration not stated)" classassignment=0.0
compound="O=C(O)C1C(C(=O)O)C23CC2(C(=O)O)C2(C(=O)O)CCC3=C3CCCC312 (configuration not stated)" classassignment=0.0

Outcome logged for COc1ccc([N+](=O)[O-])cc1[I+]c1cc([N+](=O)[O-])ccc1OC in this assay: 1.0

# lookup: test call for Clc1ccc(/C=C\c2ccncc2)cc1 0.0

Recorded test call requested for CN(C)c1ccc(N=Nc2cccc3ccccc23)cc1 0.0

Outcome? COC(=O)c1c(C)cccc1C(=O)c1ccc(C)cc1C 0.0

How was CC(C)(C)c1cc(C(O)(C(F)(F)F)C(F)(F)F)c(S)c(C(O)(C(F)(F)F)C(F)(F)F)c1 classified in this test? 1.0

// return assay outcome for COc1cc(C(c2cc3c(cc2O)OCO3)N2CCCCC2)cc(OC)c1OC (configuration not stated) 0.0

What classification did O=S1(=O)CC(Cl)(Cl)C1 end up with in this test? 0.0

Status in this test for O=c1[nH]c(=S)[nH]c(-c2ccccc2)c1Cc1c(O)ccc2ccccc12 ? 1.0

What was the test verdict on O=[N+]([O-])c1ccc(-c2nc3ccc(F)cc3[nH]2)o1 ? 1.0

Which result was noted for this compound in the test: CCN(CC)C(=O)C1(OC(C)=O)CCCCC1 0.0

Outcome? O=[N+]([O-])/C(C(Cl)=C(Cl)Cl)=C(/Nc1ccccc1)Sc1ccccc1 1.0

Hey, what did the test say about CC([N+](=O)[O-])C1(O)C(=O)c2cccc3cccc1c23 (configuration not stated) ? 0.0

---

# testSummary: NCI Yeast Anticancer Drug Screen. Data for the sgs1 mgt1 strain (AID 161);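 note: 0% = growth of cultures given vehicle only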
# experimentalParameters: S. cerevisiae sgs1 mgt1 strain, at 50.0 µM
This is part of a sample that, as a whole, favours compounds with a hit. Of some 79,000 tested, about 15% had one in any assay. Active and inactive are the calls of the source. Rule as the data show it: active = growth inhibition above about 70%; inactive = the rest.
Reply using exactly one outcome from active, inactive

Before answering, review these 4 worked examples.
molecule="Clc1ccc(CN2CCCN(Cc3ccc(Cl)cc3)C2C2CCC=CO2)cc1 (stereo not given)" classassignment=active
molecule="Cc1ccc(S(=O)(=O)n2c3c(c4ccccc42)CCN2C(=O)C(S(=O)(=O)c4ccccc4)=CCC32)cc1 (stereo not given)" classassignment=active
molecule="CCCCCCCCCCCCCCCCC1CCc2ccccc21 (stereo not given)" classassignment=active
molecule=CN(C)c1ccc(/C=C(\C#N)c2c(F)cccc2F)cc1 classassignment=inactive

Tell me the recorded outcome of this test for CCC(=O)c1ccc2ccc3ccccc3c2c1 . inactive

Field: outcome | Entry: CCCCCCCCCCCCCCCCOP(=O)([O-])OCC[N+](C)(C)C active

---

# testSummary: NCI Yeast Anticancer Drug Screen. Data for the cln2 rad14 strain (AID 165);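 note: 0% = growth equal to vehicle treated cultures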
# experimentalParameters: S. cerevisiae cln2 rad14 strain, at 50.0 µM, stronger effect = higher value
The panel holds about 79,000 compounds, 15% with a hit somewhere; the sample as a whole holds those more often.
reportedEndpoint: growth inhibition (%)
Supply the numeric figure in %, leaving out any unit text.

compound="CC(=O)OC1CCC23COC(CC(C)C2C)C3(Br)C1 (centres undefined)" reportedendpoint="growth inhibition" outputunit=% experimentalvalue=52.3
compound=CCN(CC)CCOc1ccc(/C=C(\C#N)c2ccc(OC)cc2)cc1 reportedendpoint="growth inhibition" outputunit=% experimentalvalue=82.8
compound=CN(C)CCCNc1ccc2c(=O)n(CCN(C)C)c(=O)n3c4ccccc4c(=O)c1c23 reportedendpoint="growth inhibition" outputunit=% experimentalvalue=58.6
compound="CCC(c1ccc(O)cc1)C(CC)c1ccc(O)c(O)c1 (centres undefined)" reportedendpoint="growth inhibition" outputunit=% experimentalvalue=99.4
compound="C[CH2][Ge]([CH2]C)([CH2]C)[O]C(=O)C([O][Ge]([CH2]C)([CH2]C)[CH2]C)c1ccccc1 (centres undefined)" reportedendpoint="growth inhibition" outputunit=% experimentalvalue=89.5
compound=Cc1c(CC=C(c2ccccc2)c2ccccc2)cccc1C[N+](C)(C)C reportedendpoint="growth inhibition" outputunit=% experimentalvalue=48.1
compound=CSc1ccc2c(c1)S[S@@](=O)N2 reportedendpoint="growth inhibition" outputunit=% experimentalvalue=18.3
compound=O=C1C=CC2=Nc3ccccc3CCC2=C1 reportedendpoint="growth inhibition" outputunit=% experimentalvalue=88.9
compound=COC(OC)(c1ccccc1)C(I)I reportedendpoint="growth inhibition" outputunit=% experimentalvalue=99.5
compound="CCC(CCCN(CC)CCc1ccccc1)OC(=O)c1cc(OC)c(OC)c(OC)c1 (centres undefined)" reportedendpoint="growth inhibition" outputunit=% experimentalvalue=35.6

Give me measured growth inhibition, please, for this compound: NCCCSc1ccc(Br)cc1 35.1

Note down growth inhibition recorded for Cc1cc2nc(CC(=O)c3ccncc3)c(CC(=O)c3ccncc3)nc2cc1C 75.2

Give a short answer stating reported growth inhibition for O=C(O)CC1(C(=O)O)CCCCC1 . 18.4

Identify measured growth inhibition associated with COc1cc(/C=C(/C)C[N+](=O)[O-])ccc1O 98.8

Provide only the value of recorded growth inhibition for NNC(=O)NN=C(c1ccccc1)c1ccccc1 -26.5

Return growth inhibition for the following compound: Cc1ccc(/C=C2\CN(C)CC3=C2NC(=S)NC3c2ccc(C)cc2)cc1 (centres undefined) 16.7

Could you please provide reported growth inhibition for O=C1C=CC(=O)N1c1cccc(F)c1 ? Thanks! 98.8

Note down growth inhibition recorded for O=C1Sc2sc(=S)sc2SC1c1ccccc1 (centres undefined) 58.1

Please look at this compound and report its growth inhibition: CN(C)c1ccc(/C=N/N=C(\C#N)[S][Sn]([Cl])([c]2ccccc2)[c]2ccccc2)cc1 95

Provide one value: measured growth inhibition of CCOC1Oc2ccccc2-c2nc(SC)ncc21 (centres undefined) 15.9

Give reported growth inhibition value for Nc1nc2c(ccc3ccccc32)s1 61.2

Recall and state the measured growth inhibition for Cc1cc(N(CCOS(C)(=O)=O)CCOS(C)(=O)=O)ccc1C=Nc1ccc(-c2csc(-c3ccc(Cl)cc3)n2)cc1 . 87.7

Find the measured growth inhibition of CC1(C)N=C(N)N=C(N)N1c1cccc(CCCCC(=O)CCl)c1 and report it. 81.6

Please look at this compound and report its growth inhibition: O=C(Cl)c1cc(-c2ccc(Cl)cc2)nc2c(Cl)cccc12 42.4

---

# testSummary: NCI Yeast Anticancer Drug Screen. Data for the rad50 strain (AID 155);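 note: 0% = growth of vehicle-only cultures of the same strain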
# experimentalParameters: S. cerevisiae rad50 strain growth inhibition; at 50.0 µM (retest, dose inferred, filed as 5.0); stronger effect = higher value
The panel holds about 79,000 compounds, 15% with a hit somewhere; the sample as a whole holds those more often.
reportedEndpoint: growth inhibition (%)
Just the number please, in %, no unit attached.

Below are worked cases with known answers.
compound=CCCC(=O)NC1=C(Cl)C(=O)c2ccccc2C1=O reportedendpoint="growth inhibition" experimentalvalue=99
compound="Cc1ccc(C2SCc3nc4ccccc4n32)cc1 (centres undefined)" reportedendpoint="growth inhibition" experimentalvalue=51
compound="O=C(O)C1C(C(=O)O)C23CC2(C(=O)O)C2(C(=O)O)CCC3=C3CCCC312 (centres undefined)" reportedendpoint="growth inhibition" experimentalvalue=100

Identify growth inhibition associated with the compound C/C(=N/Nc1ccccc1)C(=O)O 97

Assign growth inhibition to the following record: CCCCCCCCCCCCCCOC(=O)C(N)Cc1ccc(O)cc1 (centres undefined) 97

Specify growth inhibition for CC1=C(C(=O)Nc2cccc(Cl)c2)C(c2ccccc2O)C(C(=O)Nc2cccc(Cl)c2)=C(C)N1 and stop. 25

Give growth inhibition for the following compound: O=C1OC(c2ccccc2)CC1Cc1ccccc1 (centres undefined) -15

Dear colleague, please send me the reported growth inhibition for O=c1c(NO)c([N+](=O)[O-])cnn1-c1ccccc1 when you can. 51

Annotate the compound Cc1c(N)cc(I)cc1[N+](=O)[O-] with its measured growth inhibition. 12

Answer with the recorded growth inhibition of N#Cc1cc2cccn2c2c1cnn2-c1ccccc1 only. -5

Quick one: give measured growth inhibition for CC(=O)Oc1c(Cl)cc(Cl)cc1C(c1cc(Cl)cc(Cl)c1OC(C)=O)C(Cl)(Cl)Cl 31

Taken from PubChem BioAssay (NCI).
